test system: K86415-001-R-J1-PDC complex spheroids, viability; experiment: Anticancer human tumor K86415-001-R-J1-PDC patient-derived lung adenocarcinoma cell line growth inhibition [RAS]; conditions: second compound 0.1 µM; first compound 10 µM; stronger effect = lower value
viability, T/C less than 10% is true; viability, T/C greater than or equal to 10% is false.

Consider the worked cases shown below.
NC1c2ccccc2OC12CCN(c1cnc3c(N4CCCc5ncccc54)n[nH]c3n1)CC2 (stereo not given) + C#Cc1c(F)ccc2cc(O)cc(-c3ncc4c(N5CC6CCC(C5)N6)nc(OCC56CCCN5CC(F)C6)nc4c3F)c12 : false
CC(=O)OC12COC1CC(O)C1(C)C(=O)C(O)C3=C(C)C(OC(=O)C(O)C(NC(=O)OC(C)(C)C)c4ccccc4)CC(O)(C(OC(=O)c4ccccc4)C21)C3(C)C (stereo not given) + C=CC(=O)N1CCN(c2nc(OCC3CCCN3C)nc3c(F)c(-c4nc(N)cc(C)c4C(F)(F)F)c(Cl)cc23)C(C)C1 : true
CC(Nc1ccc2c(c1)OCCn1cc(N3C(=O)OCC3C(F)F)nc1-2)C(N)=O (stereo not given) + C=CC(=O)N1CCN(c2nc(OCC3CCCN3C)nc3c(F)c(-c4nc(N)cc(C)c4C(F)(F)F)c(Cl)cc23)C(C)C1 : true
Cc1nc(N2CCC3(CC2)COC(C)C3N)c(CO)nc1Sc1ccnc(N)c1Cl (stereo not given) + C#Cc1c(F)ccc2cc(O)cc(-c3ncc4c(N5CC6CCC(C5)N6)nc(OCC56CCCN5CC(F)C6)nc4c3F)c12 : false

-- ask Take the molecule CCC(CC)c1cc(NC2CCC(N)C2)n2nccc2n1 (stereo not given) + C#Cc1c(F)ccc2cc(O)cc(-c3ncc4c(N5CC6CCC(C5)N6)nc(OCC56CCCN5CC(F)C6)nc4c3F)c12 and say whether its viability, T/C is less than 10%.
-- reply true

-- ask Consider Cc1nc(N2CCC3(CC2)COC(C)C3N)c(CO)nc1Sc1ccnc(N)c1Cl (stereo not given) + C=CC(=O)N1CCN(c2nc(OCC3CCCN3C)nc3c(F)c(-c4nc(N)cc(C)c4C(F)(F)F)c(Cl)cc23)C(C)C1 . Does its viability, T/C lie strictly below 10%?
-- reply true

-- ask Quick check: does CC(Nc1ccc2c(c1)OCCn1cc(N3C(=O)OCC3C(F)F)nc1-2)C(N)=O (stereo not given) + C#Cc1c(F)ccc2cc(O)cc(-c3ncc4c(N5CC6CCC(C5)N6)nc(OCC56CCCN5CC(F)C6)nc4c3F)c12 have viability, T/C under 10%?
-- reply false

-- ask Does the reported viability, T/C of CCC(CC)c1cc(NC2CCC(N)C2)n2nccc2n1 (stereo not given) + C=CC(=O)N1CCN(c2nc(OCC3CCCN3C)nc3c(F)c(-c4nc(N)cc(C)c4C(F)(F)F)c(Cl)cc23)C(C)C1 stay below 10%?
-- reply true

-- ask For CC(C)NCC(C(=O)N1CCN(c2ncnc3c2C(C)CC3O)CC1)c1ccc(Cl)cc1 (stereo not given) + C#Cc1c(F)ccc2cc(O)cc(-c3ncc4c(N5CC6CCC(C5)N6)nc(OCC56CCCN5CC(F)C6)nc4c3F)c12 , is the recorded viability, T/C below the cut-off of 10%?
-- reply false

###

# pIC50 annotations
test system: K86415-001-R-J1-PDC complex spheroids, viability; experiment: Anticancer human tumor K86415-001-R-J1-PDC cell line growth inhibition [RAS]; conditions: curve of first compound; second compound 3.16 µM;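 further: spheroids exposed to agents for seven days before readout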
pIC50: −log10 of the molar value.

-- ask # get_value(readout='pIC50', item= O=C(c1ccc(F)c(F)c1Nc1ccc(I)cc1F)N1CC(O)([C@@H]2CCCCN2)C1 + C#Cc1c(F)ccc2cc(O)cc(-c3ncc4c(N5CC6CCC(C5)N6)nc(OCC56CCCN5CC(F)C6)nc4c3F)c12 )
-- reply > 8.50

-- ask Entry CC(Nc1ccc2c(c1)OCCn1cc(N3C(=O)OCC3C(F)F)nc1-2)C(N)=O (centres undefined) + C#Cc1c(F)ccc2cc(O)cc(-c3ncc4c(N5CC6CCC(C5)N6)nc(OCC56CCCN5CC(F)C6)nc4c3F)c12 has what pIC50?
-- reply > 7.50

-- ask Return reported pIC50; argument: Nc1ccn(C2OC(CO)C(O)C2(F)F)c(=O)n1 (centres undefined) + C#Cc1c(F)ccc2cc(O)cc(-c3ncc4c(N5CC6CCC(C5)N6)nc(OCC56CCCN5CC(F)C6)nc4c3F)c12
-- reply > 8.50

-- ask Query (compound): CCN1CCN(Cc2ccc(Nc3ncc(F)c(-c4cc(F)c5nc(C)n(C(C)C)c5c4)n3)nc2)CC1 + C#Cc1c(F)ccc2cc(O)cc(-c3ncc4c(N5CC6CCC(C5)N6)nc(OCC56CCCN5CC(F)C6)nc4c3F)c12 ; field requested: pIC50
-- reply > 8.50

Sourced from PubChem BioAssay AID2060893
